// values below are reported koff
Target: T1, hANGPTL3(17-460)-His (human, UniProt Q9Y5C1 17-460)
T1 construct: Bought protein (R&D Systems); also called full-length mature human ANGPTL3 with a C-terminal decahistidine tag; Human ANGPTL3 (17-460)-His
T1 sequence: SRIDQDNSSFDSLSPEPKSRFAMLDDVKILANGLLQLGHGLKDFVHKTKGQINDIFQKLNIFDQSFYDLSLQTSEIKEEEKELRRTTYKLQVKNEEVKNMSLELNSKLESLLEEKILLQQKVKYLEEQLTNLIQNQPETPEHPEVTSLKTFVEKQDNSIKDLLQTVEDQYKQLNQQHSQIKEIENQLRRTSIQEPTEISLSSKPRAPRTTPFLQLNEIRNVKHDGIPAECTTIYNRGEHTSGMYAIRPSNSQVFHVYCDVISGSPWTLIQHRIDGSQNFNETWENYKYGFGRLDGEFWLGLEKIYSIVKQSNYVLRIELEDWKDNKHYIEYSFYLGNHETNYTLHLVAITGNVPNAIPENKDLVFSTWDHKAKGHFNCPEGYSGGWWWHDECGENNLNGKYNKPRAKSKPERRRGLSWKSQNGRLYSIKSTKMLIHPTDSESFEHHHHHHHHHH
Test: SPR Biacore, antigen captured, 37C, pH 7.4, HBS-EP
Give the number; s⁻¹ is assumed, so skip it.

Before answering, review these 5 worked examples.
[
  {
    "binder": "H4H1248P (antibody, IgG4, V domains shown) VH: QVQLVESGGGVVQPGRSLRLSCAASGFTFSSYGMHWVRQAPGKGLEWVAVISYDGSNKYYADSVKGRFTISRDNSKNTLYLQMNSLRAEDTAVYYCAKVGATTFYYYYGMDVWGQGTTVTVSS VL: DIQMTQSPSSVSAFVGDRVTITCRASQGISSWLAWYQQKPGKAPKLLIYAASSLQSGVPSRFSGSGSGTDFTLTISSLQPEDFATYYCQKANSFPFTFGPGTKVEIK",
    "endpoint-result": 0.00193
  },
  {
    "binder": "H4H1279P (antibody, IgG4, V domains shown) VH: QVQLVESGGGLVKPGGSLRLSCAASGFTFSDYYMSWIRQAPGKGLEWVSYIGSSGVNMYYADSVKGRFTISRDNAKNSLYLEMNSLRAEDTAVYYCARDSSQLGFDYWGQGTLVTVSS VL: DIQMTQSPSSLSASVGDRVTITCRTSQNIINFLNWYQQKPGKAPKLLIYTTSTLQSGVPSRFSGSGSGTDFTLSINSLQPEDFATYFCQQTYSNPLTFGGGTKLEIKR",
    "endpoint-result": 0.00181
  },
  {
    "binder": "H4H1263S (antibody, IgG4, V domains shown) VH: QVQLVQSGGGVVQPGRSLRLSCAASGFTFSTYGMHWVRQAPGKGLEWMAVISFDRGNKYYADSVKGRFTISRDNSKNTLYLQMNSLRAEDTAVYYCAKGGGSGTFYYYYGMDVWGQGTTVTVSS VL: DIQMTQSPSSVSASVGNRVTITCRASQGISSWLAWYHQKPGKVPKVLIYAASSLQSGVPSRFSGSGSGTDFTLTISSLQPEDFATYYCQQANSFPFTFGPGTKVEIKR",
    "endpoint-result": 0.00181
  },
  {
    "binder": "H4H1250P (antibody, IgG4, V domains shown) VH: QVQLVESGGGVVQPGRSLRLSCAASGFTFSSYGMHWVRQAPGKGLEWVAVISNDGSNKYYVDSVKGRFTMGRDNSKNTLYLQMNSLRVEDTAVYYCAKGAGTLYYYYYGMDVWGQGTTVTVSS VL: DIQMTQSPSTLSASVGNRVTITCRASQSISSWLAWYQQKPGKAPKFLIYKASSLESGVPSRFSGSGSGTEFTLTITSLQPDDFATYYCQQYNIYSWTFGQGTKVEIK",
    "endpoint-result": 0.00113
  },
  {
    "binder": "H4H1292P (antibody, IgG4, V domains shown) VH: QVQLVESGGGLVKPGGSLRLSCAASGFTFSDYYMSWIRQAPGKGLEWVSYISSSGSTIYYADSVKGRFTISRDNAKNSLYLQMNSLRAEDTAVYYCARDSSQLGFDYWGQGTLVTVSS VL: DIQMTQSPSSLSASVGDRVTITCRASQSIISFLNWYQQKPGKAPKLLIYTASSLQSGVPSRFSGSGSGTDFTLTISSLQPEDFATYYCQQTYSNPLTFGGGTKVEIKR",
    "endpoint-result": 0.00194
  }
]

Let us examine a further case.
For H1M896N (antibody, V domains shown) VH: EVQLLESGGGLVQPGGSLRLSCAASGFTFSTYAMSWVRQAPGKGLEGVSGISGTGYRTYYADSVKGRFTISRDNSKNSLYLQMNSLRAEDTAVYYCAKDRGLLWFGELTYWGQGTLVTVSS VL: DIQMTQSPSTLSASVGDRVTITCRASQSINNWLAWYQQKPGKAPNLLIYKASSLESGVPSRFSGSGSGTEFTLTISSLQPDDFATYYCQQYNDYWTFGQGTKVEIK the binder record lists koff as 0.00053

Data origin, for the record: patent US20150197564A1
